B1: tRNA (parent)
chain: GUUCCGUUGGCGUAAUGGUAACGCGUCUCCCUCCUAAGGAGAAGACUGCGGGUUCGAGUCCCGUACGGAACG

- Variants of: B1
- methodNotes: yeast fitness relative to wild type (ratio to wild type); higher = fitter; tRNA-Arg(CCU), competitive growth, 37 C, YPD
This sample holds only a part of the variants without activity.
propertyMeasured: yeast fitness
Just the number, please, no unit after it.

C22U G51C	0.512
U26C G67U	0.696

Record request: yeast fitness value, item C11A A21U C55U
0.788

What value of yeast fitness has been reported for the following variant? U13A A40C U53A
0.53

Quick one: yeast fitness for G12A C46G A70G ?
0.703

# get_value(readout='yeast fitness', item= U3A C24G C60G )
0.645

Could you tell me which yeast fitness is on file for A15C C60A A70U ?
0.555
